# procedure_details: Apparent Kd for Cu+ by UV-visible absorption with competing ligand thiourea
# Type: binding
# conditions_used: 20 mM HEPES buffer, pH 7, 25° C., 1:1 stoichiometry assumed, read-out: Kd (apparent dissociation constant)
# Description: FIG. 5. Normalized absorbance response of 0.2 mM CG2-6 to buffered Cu^+ (CG2-5) or Cu^2+ (CG6) solutions for Kd value determination. Spectra were acquired in 20 mM HEPES, pH 7.
// Kd lookup, one value per entry
The reply should be a number in pM, with the unit left off.

CCSCCN(C)Cc1cccc(CN2CCN(CC(=O)[O-])CCN(CC(=O)[O-])CCN(CC(=O)[O-])CC2)n1.[Gd+3] | 32

With those in mind, consider the next molecule.
Please give measured Kd of the following entry: `CCSCCN(Cc1ccccc1)Cc1cccc(CN2CCN(CC(=O)[O-])CCN(CC(=O)[O-])CCN(CC(=O)[O-])CC2)n1.[Gd+3]`
14

----------
// τR (rotational correlation time) lookup, one value per entry
# procedure_details: Nuclear magnetic relaxation dispersion (NMRD) profiles, Solomon-Bloembergen-Morgan fit
# Assay type: physicochemical
# conditions_used: copper free; not experimentally determined, assumed equal to corresponding q ≠ 0 complex (CG5: average of the other complexes)
Marks after values point to notes of the source that are not given here.

Some solved cases for reference:
CCSCCN(CCSCC)Cc1cccc(CN2CCN(CC(=O)[O-])CCN(CC(=O)[O-])CCN(CC(=O)[O-])CC2)n1.[Gd+3] [CG2] | 110^d ps
CCSCCN(Cc1ccccc1)Cc1cccc(CN2CCN(CC(=O)[O-])CCN(CC(=O)[O-])CCN(CC(=O)[O-])CC2)n1.[Gd+3] [CG4] | 130^d ps
O=C([O-])CN1CCN(CC(=O)[O-])CCN(Cc2cccc(CN3CCSCCSCCSCC3)n2)CCN(CC(=O)[O-])CC1.[Gd+3] [CG3] | 130^d ps

Please give measured τR (rotational correlation time) of the following entry: CCSCCN(CC(=O)[O-])Cc1cccc(CN2CCN(CC(=O)[O-])CCN(CC(=O)[O-])CCN(CC(=O)[O-])CC2)n1.[Gd+3] [CG6]
80^d ps

Please give measured τR (rotational correlation time) of the following entry: CCSCCN(C)Cc1cccc(CN2CCN(CC(=O)[O-])CCN(CC(=O)[O-])CCN(CC(=O)[O-])CC2)n1.[Gd+3] [CG5]
100^e ps

----------
# procedure_details: Nuclear magnetic relaxation dispersion (NMRD) profiles, Solomon-Bloembergen-Morgan fit
# Type: physicochemical
# conditions_used: copper free; best-fit value
// Δ^2 (average quadratic transient zero field splitting) lookup, one value per entry

Some solved cases for reference:
CCSCCN(CC(=O)[O-])Cc1cccc(CN2CCN(CC(=O)[O-])CCN(CC(=O)[O-])CCN(CC(=O)[O-])CC2)n1.[Gd+3] | 8.4 ± 2.0 10^19 s^−2
O=C([O-])CN1CCN(CC(=O)[O-])CCN(Cc2cccc(CN3CCSCCSCCSCC3)n2)CCN(CC(=O)[O-])CC1.[Gd+3] | 3.2 ± 0.7 10^19 s^−2
CCSCCN(CCSCC)Cc1cccc(CN2CCN(CC(=O)[O-])CCN(CC(=O)[O-])CCN(CC(=O)[O-])CC2)n1.[Gd+3] | 5.8 ± 1.1 10^19 s^−2
CCSCCN(C)Cc1cccc(CN2CCN(CC(=O)[O-])CCN(CC(=O)[O-])CCN(CC(=O)[O-])CC2)n1.[Gd+3] | 3.5 ± 0.8 10^19 s^−2

Please give measured Δ^2 (average quadratic transient zero field splitting) of the following entry: `CCSCCN(Cc1ccccc1)Cc1cccc(CN2CCN(CC(=O)[O-])CCN(CC(=O)[O-])CCN(CC(=O)[O-])CC2)n1.[Gd+3]`
3.4 ± 1.4 10^19 s^−2

----------
// r1p 20 MHz 25° C. lookup, one value per entry
# procedure_details: Nuclear magnetic relaxation dispersion (NMRD) profiles, Solomon-Bloembergen-Morgan fit
# Type: physicochemical
# conditions_used: copper free; 0.5 mM, 20 mM HEPES pH 7
Provide a numeric answer, followed by its unit.

Please give measured r1p 20 MHz 25° C. of the following entry: `CCSCCN(CC(=O)[O-])Cc1cccc(CN2CCN(CC(=O)[O-])CCN(CC(=O)[O-])CCN(CC(=O)[O-])CC2)n1.[Gd+3]`
2.2 mM⁻¹ s⁻¹

Please give measured r1p 20 MHz 25° C. of the following entry: `O=C([O-])CN1CCN(CC(=O)[O-])CCN(Cc2cccc(CN3CCSCCSCCSCC3)n2)CCN(CC(=O)[O-])CC1.[Gd+3]`
1.6 mM⁻¹ s⁻¹

Please give measured r1p 20 MHz 25° C. of the following entry: `CCSCCN(C)Cc1cccc(CN2CCN(CC(=O)[O-])CCN(CC(=O)[O-])CCN(CC(=O)[O-])CC2)n1.[Gd+3]`
1.6 mM⁻¹ s⁻¹

Please give measured r1p 20 MHz 25° C. of the following entry: `CCSCCN(Cc1ccccc1)Cc1cccc(CN2CCN(CC(=O)[O-])CCN(CC(=O)[O-])CCN(CC(=O)[O-])CC2)n1.[Gd+3]`
2.1 mM⁻¹ s⁻¹

Please give measured r1p 20 MHz 25° C. of the following entry: `CCSCCN(CCSCC)Cc1cccc(CN2CCN(CC(=O)[O-])CCN(CC(=O)[O-])CCN(CC(=O)[O-])CC2)n1.[Gd+3]`
1.6 mM⁻¹ s⁻¹

----------
// τs0 (electronic relaxation time at zero field) lookup, one value per entry
# procedure_details: Nuclear magnetic relaxation dispersion (NMRD) profiles, Solomon-Bloembergen-Morgan fit
# Type: physicochemical
# conditions_used: copper free

Some solved cases for reference:
O=C([O-])CN1CCN(CC(=O)[O-])CCN(Cc2cccc(CN3CCSCCSCCSCC3)n2)CCN(CC(=O)[O-])CC1.[Gd+3] | 96 ps
CCSCCN(CCSCC)Cc1cccc(CN2CCN(CC(=O)[O-])CCN(CC(=O)[O-])CCN(CC(=O)[O-])CC2)n1.[Gd+3] | 75.6 ps
CCSCCN(Cc1ccccc1)Cc1cccc(CN2CCN(CC(=O)[O-])CCN(CC(=O)[O-])CCN(CC(=O)[O-])CC2)n1.[Gd+3] | 99 ps
CCSCCN(C)Cc1cccc(CN2CCN(CC(=O)[O-])CCN(CC(=O)[O-])CCN(CC(=O)[O-])CC2)n1.[Gd+3] | 95 ps

With those in mind, consider the next compound.
Please give measured τs0 (electronic relaxation time at zero field) of the following entry: `CCSCCN(CC(=O)[O-])Cc1cccc(CN2CCN(CC(=O)[O-])CCN(CC(=O)[O-])CCN(CC(=O)[O-])CC2)n1.[Gd+3]`
61 ps
